From: patent US11186564B2

- subject-of-test: recombinant human serotonin receptor 5-HT2A (Homo sapiens, UniProt P28223)
- Construct: expressed in transfected cells; method B: loaded with Ca2+ dye
- Sequence (P28223 whole entry): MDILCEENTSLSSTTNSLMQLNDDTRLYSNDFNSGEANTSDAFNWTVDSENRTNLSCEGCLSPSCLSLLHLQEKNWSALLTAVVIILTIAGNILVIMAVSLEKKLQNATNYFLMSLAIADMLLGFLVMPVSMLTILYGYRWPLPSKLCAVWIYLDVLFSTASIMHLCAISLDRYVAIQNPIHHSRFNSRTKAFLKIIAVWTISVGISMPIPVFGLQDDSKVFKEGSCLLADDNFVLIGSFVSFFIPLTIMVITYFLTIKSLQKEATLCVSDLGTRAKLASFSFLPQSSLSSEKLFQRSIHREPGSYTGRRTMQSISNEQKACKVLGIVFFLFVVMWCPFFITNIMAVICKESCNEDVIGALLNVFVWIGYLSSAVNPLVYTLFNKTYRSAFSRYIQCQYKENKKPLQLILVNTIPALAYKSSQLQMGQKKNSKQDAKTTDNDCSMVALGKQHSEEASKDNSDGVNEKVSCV
- assay-text: 5-HT2A antagonist Ca2+ assay in CHO-K1 cells (method A aequorin luminescence / method B FLIPR fluorescence)
- Assay type: cell-based
- measurement-parameters: antagonist mode vs EC80 of reference agonist, method A or B, read-out: 5HT2A IC50
attribute-measured: log10(IC50) (log10 of the value in nM)

| compound | attribute-measured | measured-result |
| --- | --- | --- |
| COc1ccccc1O[C@@H]1CCN(CCN2CCc3ccccc3C2=O)C1 [Example 13] | log10(IC50) | 3.29 |
| COc1cccc(O[C@@H]2CCN(CCN3CCc4ccccc4C3=O)C2)c1 [Example 21] | log10(IC50) | 3.41 |
| O=C1c2ccccc2CCN1CCN1CCC(Oc2cccc(F)c2)CC1 [Example 193] | log10(IC50) | 2.52 |
| c1ccc(OC2CCN(CC3CCc4ccccc43)CC2)cc1 (stereo not drawn) [Example 106] | log10(IC50) | 1.00 |
| OC(CO[C@H]1CCc2ccccc21)CN1CCC(Oc2ccc(F)cc2)CC1 (stereo partly drawn) [Example 235] | log10(IC50) | 2.28 |
| COc1ccccc1OC1CCN(CC2CCOc3ccccc32)CC1 (stereo not drawn) [Example 162] | log10(IC50) | 1.95 |
| NCCOc1ccc2c(c1)C(CN1CCC(Oc3ccc(F)cc3)CC1)CC2 (stereo not drawn) [Example 114] | log10(IC50) | 1.85 |
| C[C@H]1C[C@]2(CCc3ccccc3O2)CCN1CCO[C@H]1CCc2ccccc21 [Example 433] | log10(IC50) | 2.51 |

---

- subject-of-test: recombinant human serotonin receptor 5-HT2A (Homo sapiens)
- Construct: expressed in transfected cells; method B: loaded with Ca2+ dye
- assay-text: 5-HT2A antagonist Ca2+ assay in CHO-K1 cells (method A aequorin luminescence / method B FLIPR fluorescence)
- Format: cell-based
- measurement-parameters: antagonist mode vs EC80 of reference agonist, method A or B, read-out: 5HT2A IC50
- Text: The methods utilized to assess the inhibitory activity of compounds on recombinant human serotonin receptor 5-HT2A was based upon previously published approaches [Jerman J C, Brough S J, Gager T, Wood M, Coldwell M C, Smart D, Middlemiss D N. Pharmacological characterisation of human 5-HT2 receptor subtypes. European Journal of Pharmacology 2001 Feb. […]
pIC50: −log10 of the molar value.

| molecule | pIC50 |
| --- | --- |
| O=C1Cc2ccccc2N1CCCN1CCC(Oc2ccc(F)cc2)CC1 | 8.00 |
| c1ccc(C2COC3(C2)CN(CC2CCc4ccccc42)C3)cc1 (centres unmarked) | 6.26 |
| c1ccc(CC2CN(CC3CCc4ccccc43)CCO2)cc1 (centres unmarked) | 6.43 |
| COc1ccc2c(c1)CCCN(CCN1CCC(Oc3ccc(F)cc3)CC1)C2=O | 8.00 |
| OC(COC1CCCCc2ccccc21)CN1CCC(Oc2ccccc2)CC1 (centres unmarked) | 6.96 |

---

We begin with a simple list: items and their reported IC50.
- subject-of-test: recombinant human serotonin receptor 5-HT2A (Homo sapiens, UniProt P28223)
- Construct: expressed in transfected cells; method B: loaded with Ca2+ dye
- assay-text: 5-HT2A antagonist Ca2+ assay in CHO-K1 cells (method A aequorin luminescence / method B FLIPR fluorescence)
- Assay type: cell-based
- measurement-parameters: antagonist mode vs EC80 of reference agonist, method A or B, read-out: 5HT2A IC50

| compound | measurement-qualifier | IC50 (nM) |
| --- | --- | --- |
| COc1ccccc1O[C@H]1CCN(CCN2CCc3ccccc3C2=O)[C@H]1C | = | 560 |
| OC(COC1CCCCC1)CN1CCC2(CCCN2c2ccccc2)CC1 (stereo not drawn) | > | 16700 |
| OC(CO[C@@H]1CCCc2ccccc21)CN1CC[C@@H](Oc2ccc(F)cc2)C1 (stereo partly drawn) | = | 60 |
| COc1ccc2c(c1)C(CN1CCC(Oc3cccnc3)CC1)CC2 (stereo not drawn) | = | 1920 |
| OC(COC1CCCCC1)CN1CCCC12CCCN(c1ccccc1)C2 (stereo not drawn) | > | 16700 |
| COc1ccc2c(c1)C(CN1CCC3(CCc4ccccc4O3)CC1)CC2 (stereo not drawn) | = | 1070 |
| Fc1ccc(O[C@@H]2CCN(CC3CCc4ncccc43)C2)cc1 (stereo partly drawn) | = | 1880 |
| OC(COC1CCCCC1)CN1CCC2(CCN(c3ccccc3)CC2)C1 (stereo not drawn) | = | 610 |
| COc1ccc2c(c1)C(CN1CCC(OCc3ccccc3F)CC1)CC2 (stereo not drawn) | = | 360 |
